Cited source: ChEMBL document CHEMBL1132910

- experimentalSystem: Mitogen-activated protein kinase 9 (Homo sapiens)
- Sequence (P45984 whole entry): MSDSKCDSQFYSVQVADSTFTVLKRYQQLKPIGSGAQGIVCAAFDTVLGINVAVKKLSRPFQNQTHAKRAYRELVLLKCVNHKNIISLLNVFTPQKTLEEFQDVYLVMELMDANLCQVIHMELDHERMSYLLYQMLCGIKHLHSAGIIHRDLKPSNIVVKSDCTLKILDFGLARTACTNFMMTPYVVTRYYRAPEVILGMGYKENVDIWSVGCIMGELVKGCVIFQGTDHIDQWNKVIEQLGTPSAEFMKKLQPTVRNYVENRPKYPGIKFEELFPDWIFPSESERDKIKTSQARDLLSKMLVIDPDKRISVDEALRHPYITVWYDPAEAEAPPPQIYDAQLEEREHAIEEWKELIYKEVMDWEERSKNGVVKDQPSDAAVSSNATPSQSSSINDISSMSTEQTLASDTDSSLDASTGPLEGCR
- testSummary: Inhibition of JNK2 kinase
readoutKind: IC50 (µM)
Numbers only, in µM.

Q) Can you share its IC50? I mean this molecule: CN1CCC(O)(c2nc(-c3ccc(F)cc3)c(-c3ccncc3)o2)CC1
A) 8.09

---

- experimentalSystem: Prostaglandin G/H synthase 1 (Ovis aries)
- Sequence (P05979 whole entry): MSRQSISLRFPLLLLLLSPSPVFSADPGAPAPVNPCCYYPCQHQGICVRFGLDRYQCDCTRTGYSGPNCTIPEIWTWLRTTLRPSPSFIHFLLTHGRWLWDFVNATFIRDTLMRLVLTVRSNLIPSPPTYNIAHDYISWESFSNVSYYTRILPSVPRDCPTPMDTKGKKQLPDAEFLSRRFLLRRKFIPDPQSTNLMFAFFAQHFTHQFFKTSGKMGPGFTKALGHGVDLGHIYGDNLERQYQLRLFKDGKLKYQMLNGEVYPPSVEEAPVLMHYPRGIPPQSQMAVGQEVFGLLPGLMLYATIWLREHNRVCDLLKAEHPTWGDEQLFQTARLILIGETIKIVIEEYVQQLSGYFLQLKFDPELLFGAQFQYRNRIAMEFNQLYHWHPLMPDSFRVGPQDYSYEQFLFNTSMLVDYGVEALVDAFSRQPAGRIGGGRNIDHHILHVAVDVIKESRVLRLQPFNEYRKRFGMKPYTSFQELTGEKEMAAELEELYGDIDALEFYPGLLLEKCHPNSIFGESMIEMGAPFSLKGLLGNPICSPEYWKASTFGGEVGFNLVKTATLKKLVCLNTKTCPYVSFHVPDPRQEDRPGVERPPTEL
readoutKind: log10 of IC50 (log10 of the value in µM)
Hello, just confirming the data are log10 of IC50 with units of µM.

Example entries begin here.
CC(C)(O)c1nc(-c2ccncc2)c(-c2ccc(F)cc2)[nH]1; 1.94
OC1(c2nc(-c3ccncc3)c(-c3ccc(F)cc3)[nH]2)CC1; 1.60
OC1(c2nc(-c3ccncc3)c(-c3ccc(F)cc3)[nH]2)CCCCCC1; -0.70
CN1CCC(O)(c2nc(-c3ccc(F)cc3)c(-c3ccncc3)s2)CC1; 1.86
OC1(c2nc(-c3ccncc3)c(-c3ccc(F)cc3)[nH]2)CCC1; 1.30

Q) Can you share its log10 of IC50? I mean this compound: OC1(c2nc(-c3ccncc3)c(-c3ccc(F)cc3)[nH]2)CCCCC1
A) 0.80
